Target: T1, mouse CTGF (antigen of the Biacore assay) (mouse, UniProt P29268 26-348)
T1 construct: also called mouse CTGF protein
T1 sequence (looked up): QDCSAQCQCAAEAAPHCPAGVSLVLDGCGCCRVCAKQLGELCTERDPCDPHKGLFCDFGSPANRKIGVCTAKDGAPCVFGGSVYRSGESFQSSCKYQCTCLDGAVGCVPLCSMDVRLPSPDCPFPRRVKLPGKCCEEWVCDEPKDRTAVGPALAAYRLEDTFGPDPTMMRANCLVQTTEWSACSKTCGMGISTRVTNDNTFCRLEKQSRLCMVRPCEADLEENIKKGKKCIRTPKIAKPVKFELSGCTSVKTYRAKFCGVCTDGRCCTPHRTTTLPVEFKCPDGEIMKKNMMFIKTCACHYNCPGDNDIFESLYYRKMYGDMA
Experiment: Biacore, antibody captured on Protein A, mouse CTGF in flow, 1:1 fit
kon overview
In your response, put the unit directly after the numeric value.

Examples from the recorded data:
Hu164-69wl (antibody, human IgG1, lambda, V domains shown) VH: EVTLKESGPVLVKPTETLTLTCTVSGFSLSTFGVHWIRQPPGKGLEWLGVIWRRGGTDYNAAFMSRLTISKDTSKSQVVFTMTNMDPVDTATYYCARDGGFDYWGQGTTVTVSS VL: ESVVTQPPSVSGAPGQRVTISCRSSIGAVTTSNYANWVQQLPGTAFKGLIGGTSNRAPGVPDRFSGSKSGTSASLAITGLQAEDEADYYCALWYSTHYVFGGGTKLTVLG :: 6.17e+07 M⁻¹ s⁻¹
Hu147-23wk (antibody, human IgG1, kappa, V domains shown) VH: EVQLVESGGGLVQPGGSLRLSCAASGFTFNTYAMNWVRQAPGKGLEWVARIRTKSNNYATYYADSVKDRFTISRDDSKNSLYLQMNSLKTEDTAVYYCVETGFAYWDQGTLVTVSS VL: EIVLTQSPATLSLSPGERATLSCSASSSVSYMHWFQQKPGQSPKLWIYSTSNLASGVPARFSGSGSGTDYTLTISSLEPEDFAVYYCQQRSSYPLTFGQGTKLEIKR :: 8.18e+07 M⁻¹ s⁻¹

Proceed to the following item.
Looking for the measured kon of Hu164-77wl (antibody, human IgG1, lambda, V domains shown) VH: EVQLQESGPGLVKPSQTLSLTCTVSGFSISTFGVHWIRQHPGKGLEWIGVIWRRGGTDYNAAFMSRVTISKDTSKNQVSLKLSSVTAADTAVYYCARDGGFDYWGQGTTVTVSS VL: ETVVTQEPSLTVSPGGTVTLTCRSSIGAVTTSNYANWVQQKPGQAFRGLIGGTSNRAPWTPARFSGSLLGGKAALTLSGVQPEDEAEYYCALWYSTHYVFGGGTKLTVLG , can you help?
5.98e+07 M⁻¹ s⁻¹
